Would you mind telling me the reported SPOT intensity of each entry?
TARGET: T1, Abp1, P15891
T1 sequence (P15891 535-592, looked up): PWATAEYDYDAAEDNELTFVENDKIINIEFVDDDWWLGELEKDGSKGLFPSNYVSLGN
PROTOCOL_DETAILS: SPOT array
MEASUREMENT_PARAMETERS: median of control spots 935
One number for each entry.

INSERT INTO results (binder, value_type, reported_measurement) VALUES
  ('RLSFFFPLDPAYIRN', 'SPOT intensity', 28),
  ('MAMRPIPPLPTESEY', 'SPOT intensity', 6),
  ('NRPAIRIPSLKKPAL', 'SPOT intensity', 74);

Report SPOT intensity for each item below.
1. VGFRLALKFPSRITG
2. APKREAPKPPANTSP
3. LTRRFPFLFPFDTRM
4. IHTRRPSSTSQYLIR

output:
[489, 9, 18, 27]
